- TARGET OR TEST SYSTEM: T1, rat PTH-1R (rat PTHR endogenously expressed on UMR-106 rat osteosarcoma cells) (rat, UniProt P25961 27-591)
- T1 sequence (looked up): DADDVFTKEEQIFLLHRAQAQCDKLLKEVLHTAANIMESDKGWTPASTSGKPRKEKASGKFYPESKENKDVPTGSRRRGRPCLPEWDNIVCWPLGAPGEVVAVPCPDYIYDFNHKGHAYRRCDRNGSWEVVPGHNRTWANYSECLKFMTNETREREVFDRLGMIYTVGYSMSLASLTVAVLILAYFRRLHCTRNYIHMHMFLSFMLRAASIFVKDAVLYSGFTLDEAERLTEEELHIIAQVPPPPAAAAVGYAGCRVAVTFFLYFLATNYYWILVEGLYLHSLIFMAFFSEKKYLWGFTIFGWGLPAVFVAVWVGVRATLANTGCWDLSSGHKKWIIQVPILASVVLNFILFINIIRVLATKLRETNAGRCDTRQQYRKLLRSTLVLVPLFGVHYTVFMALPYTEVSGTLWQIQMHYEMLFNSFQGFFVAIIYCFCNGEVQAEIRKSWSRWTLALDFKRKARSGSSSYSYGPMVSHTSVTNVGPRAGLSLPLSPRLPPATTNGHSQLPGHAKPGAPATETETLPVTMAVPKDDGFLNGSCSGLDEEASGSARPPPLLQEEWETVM
- PROCEDURE DETAILS: cell-based or functional assay
Where no end group is shown, it is not given here. [ ]: non-standard residue; d: D form. Bip(2'-Et-4'-OMe) = CCc1cc(OC)ccc1-c1ccc(C[C@H](N)C(=O)O)cc1; Arg(NO2) = N=C(NCCC[C@H](N)C(=O)O)N[N+](=O)[O-]; αMePhe(2,6-F2) = C[C@](N)(Cc1c(F)cccc1F)C(=O)O; αMePhe(2-F) = C[C@](N)(Cc1ccccc1F)C(=O)O; hhPhe = N[C@@H](CCCc1ccccc1)C(=O)O; hArg = N=C(N)NCCCC[C@H](N)C(=O)O; hCit = NC(=O)NCCCC[C@H](N)C(=O)O; αMeF = C[C@](N)(Cc1ccccc1)C(=O)O; Cit = NC(=O)NCCC[C@H](N)C(=O)O; αMeP = C[C@@]1(C(=O)O)CCCN1; Nle = CCCC[C@H](N)C(=O)O; Orn = NCCC[C@H](N)C(=O)O; Ac5c = NC1(C(=O)O)CCCC1; Ac3c = NC1(C(=O)O)CC1; Aib = CC(C)(N)C(=O)O
Answer each item with its documented cAMP released with respect to control, 100 nM peptide, UMR-106 cells.

Please report the recorded cAMP released with respect to control, 100 nM peptide, UMR-106 cells for [Ac5c]V[Aib]EIQ[αMePhe(2,6-F2)][Nle]HQ[hArg]AK[αMeF] [Seq. ID. 49] .
73 percent of control

Then this binder: [Aib]V[Aib]EIQ[αMePhe(2,6-F2)][Nle]HQ[hCit]A[Cit][Bip(2'-Et-4'-OMe)][hhPhe] [Seq. ID. 860]
70 percent of control

Record: [Aib]V[Aib]EIQ[αMePhe(2,6-F2)][Nle]HQ[αMePhe(2,6-F2)][Aib][Aib][Bip(2'-Et-4'-OMe)][hhPhe] [Seq. ID. 886]
100 percent of control

// next record [Aib]V[Aib]EIQ[αMePhe(2-F)][Nle]HQ[Orn][Aib][Arg(NO2)][αMePhe(2-F)] [Seq. ID. 330]
72 percent of control

Record: [Ac5c]V[Aib]EIQL[Nle]HQ[Orn]A[Aib][Bip(2'-Et-4'-OMe)][hhPhe] [Seq. ID. 751]
116 percent of control

Ok, now [Ac5c]V[Aib]EIQ[αMePhe(2,6-F2)][Nle]HQ[αMePhe(2,6-F2)]A[Cit][αMePhe(2-F)] [Seq. ID. 479]
112 percent of control

Entry to check: [Aib]V[Aib]EIQ[αMePhe(2,6-F2)][Nle]HQ[hArg][Aib][Cit][Bip(2'-Et-4'-OMe)][hhPhe] [Seq. ID. 820]
66 percent of control

Same read-out for [Ac3c]V[Aib]EIQ[αMePhe(2,6-F2)][Nle]HQ[hArg][αMeP]K[αMePhe(2,6-F2)] [Seq. ID. 110] ?
72 percent of control

Subsequent entry: [Aib]V[Aib]EIQ[αMePhe(2,6-F2)][Nle]HQ[hCit][Aib][Arg(NO2)][αMePhe(2,6-F2)] [Seq. ID. 470]
116 percent of control

# iterate: [Ac5c]V[Aib]EIQ[αMePhe(2,6-F2)][Nle]HQ[Orn][Aib][αMePhe(2,6-F2)][Bip(2'-Et-4'-OMe)][hhPhe] [Seq. ID. 841]
100 percent of control
